# testedOn: Dual specificity protein kinase CLK3 (Homo sapiens)
# conditionContext: at 1 µM
Kindly state inhibition for each of the entries shown.
Reply with just the number (in %).

Exercise: State its inhibition for this molecule: `Nc1nccc(C#Cc2cncnc2Nc2ccc(OCc3cccc(F)c3)c(Cl)c2)n1`
Solution: 3.1

Exercise: State its inhibition for this molecule: `CN(C)C(=O)O[C@H]1CN[C@H](C#Cc2cc3ncnc(Nc4ccc(OCc5cccc(F)c5)c(Cl)c4)c3s2)C1`
Solution: 1.86

Exercise: State its inhibition for this molecule: `Cc1ccc(O)cc1Nc1ccnc2ccc(S(C)(=O)=O)cc12`
Solution: 3.42

====

Kindly state inhibition for each of the entries shown.
# testedOn: Dual specificity protein kinase CLK2 (Homo sapiens)
# conditionContext: at 0.1 µM
# Description: GSK_PKIS: CLK2 mean inhibition at 0.1 uM [Nanosyn]
Reply with just the number (in %).

Exercise: State its inhibition for this compound: `CCn1c(-c2nonc2N)nc2ccc(F)cc21`
Solution: 2.5

Exercise: State its inhibition for this compound: `Nc1ccc(C#Cc2cncnc2Nc2ccc(OCc3cccc(F)c3)c(Cl)c2)cc1`
Solution: 0.14

Exercise: State its inhibition for this compound: `CC(C)c1ccc(Nc2nccc(-c3cnn4ncccc34)n2)cc1`
Solution: 14

Exercise: State its inhibition for this compound: `O=C(Nc1ccc(Oc2ccc3[nH]c(NC(=O)c4ccco4)nc3c2)cc1)Nc1cc(C(F)(F)F)ccc1F`
Solution: 0.35

Exercise: State its inhibition for this compound: `COC(=O)c1cncc(/C=C/c2c(C)cc(O)cc2C)c1`
Solution: -0.85

Exercise: State its inhibition for this compound: `C[C@@H](Oc1cc(-n2cnc3ccc(OC[C@@H](O)CO)cc32)sc1C(N)=O)c1ccccc1Cl`
Solution: 1.72

Exercise: State its inhibition for this compound: `COc1ccc2ncnc(Nc3ccc(OCc4ccccc4)cc3)c2c1`
Solution: 1.07

====

# testedOn: Cyclin-dependent kinase 2 (Homo sapiens) (UniProt P24941)
# conditionContext: at 1 µM
Kindly state inhibition for each of the entries shown.
Returns: string containing the numeric result and its unit.

Exercise: State its inhibition for this compound: `Cc1cc(O)cc(C)c1/C=C/c1cncc(C(=O)N(C)C)c1`
Solution: 4.91%

Exercise: State its inhibition for this compound: `Cc1ccc(NC(=O)CC2CC2)cc1-c1ccc(C(=O)NCC2CC2)cc1`
Solution: 2.92%

Exercise: State its inhibition for this compound: `Cc1ccc2c(-c3ccnc(Nc4ccc5c(c4)OCCO5)n3)c(-c3ccc(C(F)(F)F)cc3)nn2n1`
Solution: 1.68%

Exercise: State its inhibition for this compound: `CCn1c(-c2nonc2N)nc2c(C#CC(C)(C)O)nc(OCCNC)cc21`
Solution: 5.28%

Exercise: State its inhibition for this compound: `CN(C)C(=O)O[C@H]1CN[C@H](C#Cc2cc3ncnc(Nc4ccc(OCc5cccc(F)c5)c(Cl)c4)c3s2)C1`
Solution: 3.18%

Exercise: State its inhibition for this compound: `CC(C)c1ccc2c(c1)NC(=O)/C2=N/Nc1ccc(S(N)(=O)=O)cc1`
Solution: 18.9%

Exercise: State its inhibition for this compound: `CC(C)c1ccc(Nc2nccc(-c3cnn4ncccc34)n2)cc1`
Solution: 64.5%

Exercise: State its inhibition for this compound: `Cc1ccc(C(=O)NC2CC2)cc1-c1ccc2[nH]ncc2c1`
Solution: 0.18%

Exercise: State its inhibition for this compound: `COc1cc(/C=N/Nc2ncnc3c2cnn3C(C)C)ccc1O`
Solution: 32.4%

Exercise: State its inhibition for this compound: `C[C@@H](Oc1cc(-n2cnc3ccc(OCC4CCN(C)CC4)cc32)sc1C(N)=O)c1ccccc1C(F)(F)F`
Solution: 0.83%

Exercise: State its inhibition for this compound: `CN(C)c1cc2c(Nc3ccc4c(cnn4Cc4ccccc4)c3)ncnc2cn1`
Solution: 3.51%

Exercise: State its inhibition for this compound: `ON=C1CCc2cc(-c3nc(C4CCNCC4)[nH]c3-c3ccncc3)ccc21`
Solution: 2.51%

Exercise: State its inhibition for this compound: `CN(C)C(=O)O[C@@H]1CN[C@@H](C#Cc2cc3ncnc(Nc4ccc(OCc5cccc(F)c5)c(Cl)c4)c3s2)C1`
Solution: 1.06%

Exercise: State its inhibition for this compound: `N#Cc1c(NC(=O)c2ccccc2F)sc2c1CCCC2`
Solution: -0.2%

Exercise: State its inhibition for this compound: `OCc1ccc(-c2nc(-c3ccccn3)c(-c3ccc4c(c3)OCO4)[nH]2)cc1`
Solution: 4.52%

Exercise: State its inhibition for this compound: `NS(=O)(=O)c1ccc(NC=C2C(=O)Nc3ccc4ncsc4c32)cc1`
Solution: 76.7%

Exercise: State its inhibition for this compound: `COc1ccc(-c2nn3ncccc3c2-c2ccnc(Nc3cccc(C(F)(F)F)c3)n2)cc1`
Solution: 4.1%

Exercise: State its inhibition for this compound: `NS(=O)(=O)c1ccc(Nc2cc(-c3cccc(O)c3)n[nH]2)cc1`
Solution: 56%

Exercise: State its inhibition for this compound: `O=C(Nc1ccc(Oc2ccc3[nH]c(NC(=O)c4ccco4)nc3c2)cc1)Nc1cc(C(F)(F)F)ccc1F`
Solution: -4%

Exercise: State its inhibition for this compound: `N#Cc1cccc(Nc2nccc(-c3cnn4ncccc34)n2)c1`
Solution: 87.2%
